- SUBJECT_OF_TEST: Cystine/glutamate transporter (Homo sapiens, UniProt Q9UPY5)
- Sequence (Q9UPY5 whole entry): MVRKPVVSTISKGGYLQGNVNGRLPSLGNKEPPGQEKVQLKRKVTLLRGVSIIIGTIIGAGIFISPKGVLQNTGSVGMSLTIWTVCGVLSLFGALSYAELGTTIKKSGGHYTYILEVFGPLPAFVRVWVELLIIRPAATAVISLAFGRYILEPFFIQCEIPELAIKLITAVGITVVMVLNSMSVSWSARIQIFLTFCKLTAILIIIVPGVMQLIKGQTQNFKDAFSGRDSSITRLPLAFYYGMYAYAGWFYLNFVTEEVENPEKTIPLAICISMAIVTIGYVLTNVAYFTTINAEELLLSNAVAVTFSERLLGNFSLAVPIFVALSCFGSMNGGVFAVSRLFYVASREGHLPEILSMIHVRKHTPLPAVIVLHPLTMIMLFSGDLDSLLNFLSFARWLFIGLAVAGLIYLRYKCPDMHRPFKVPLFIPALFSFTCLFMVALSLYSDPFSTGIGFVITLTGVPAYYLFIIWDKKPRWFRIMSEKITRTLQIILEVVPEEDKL
- TEST_SUMMARY: Inhibition of amino acid transport system xc- in human SNB19 cells assessed as [3H]L-glutamate uptake by liquid scintillation counting
PARAMETER: IC50 (µM)
Unit µM implied. Number only.

These solved cases illustrate the format of a correct answer.
INPUT_SMILES: C/C(=N\Nc1cc(C(F)(F)F)cc(C(F)(F)F)c1)c1c(C(=O)O)noc1C
IC50 [µM]: 129
--
INPUT_SMILES: C/C(=N\Nc1ccc([N+](=O)[O-])cc1[N+](=O)[O-])c1c(C(=O)O)noc1C
IC50 [µM]: 290
--
INPUT_SMILES: C/C(=N\Nc1ccc([N+](=O)[O-])cc1)c1c(C(=O)O)noc1C
IC50 [µM]: 127

Next up:
Prompt line: Please look at this molecule and report its IC50: C/C(=N\Nc1ccc([N+](=O)[O-])cc1[N+](=O)[O-])c1c(C(=O)O)noc1CCc1ccc2ccccc2c1
Response line: 225

###

- SUBJECT_OF_TEST: Cystine/glutamate transporter (Homo sapiens) (UniProt Q9UPY5)
- TEST_SUMMARY: Inhibition of amino acid transport system xc- in human SNB19 cells assessed as [3H]L-glutamate uptake at 250 uM by liquid scintillation counting
- Assay type: cell-based
- Set-up: scale not given: the % may be the effect or the level left
- STATED_CONDITIONS: SNB-19
Activity strictly under 90% means yes; at 90% or over means no.

Worked examples, 5 molecules total:
MOLECULE: N[C@@H](Cc1c(C(=O)O)noc1COCc1ccccc1)C(=O)O (racemic)
SUBJECT_OF_TEST: Cystine/glutamate transporter (Homo sapiens) (UniProt Q9UPY5)
QUALITATIVE_LABEL: yes
//
MOLECULE: C/C(=N\Nc1ccc([N+](=O)[O-])cc1[N+](=O)[O-])c1c(C(=O)O)noc1C
SUBJECT_OF_TEST: Cystine/glutamate transporter (Homo sapiens) (UniProt Q9UPY5)
QUALITATIVE_LABEL: yes
//
MOLECULE: Cc1onc(C(=O)O)c1CC(N)P(=O)(O)O (racemic)
SUBJECT_OF_TEST: Cystine/glutamate transporter (Homo sapiens) (UniProt Q9UPY5)
QUALITATIVE_LABEL: no
//
MOLECULE: Cc1onc(C(=O)O)c1C[C@H](N)C(=O)O
SUBJECT_OF_TEST: Cystine/glutamate transporter (Homo sapiens) (UniProt Q9UPY5)
QUALITATIVE_LABEL: no
//
MOLECULE: CCOC(=O)c1noc(C)c1/C(C)=N/NS(=O)(=O)c1ccccc1
SUBJECT_OF_TEST: Cystine/glutamate transporter (Homo sapiens) (UniProt Q9UPY5)
QUALITATIVE_LABEL: no

Prompt line: Input C/C(=N\NS(=O)(=O)c1ccccc1)c1c(C(=O)O)noc1C ; condition: Activity strictly below 90%. Does it hold?
Response line: no

Prompt line: Input N[C@@H](Cc1c(C(=O)O)noc1CCc1ccc2ccccc2c1)C(=O)O ; condition: Activity strictly below 90%. Does it hold?
Response line: yes

Prompt line: Input CCOC(=O)c1noc(C)c1/C(C)=N/NC(N)=O ; condition: Activity strictly below 90%. Does it hold?
Response line: no

Prompt line: Input Cc1onc(C(=O)O)c1CC(N)C(=O)O (racemic) ; condition: Activity strictly below 90%. Does it hold?
Response line: no

Prompt line: Input COC(C)c1onc(C(=O)O)c1C[C@H](N)C(=O)O (mixture of isomers) ; condition: Activity strictly below 90%. Does it hold?
Response line: no

###

- SUBJECT_OF_TEST: Cystine/glutamate transporter (Homo sapiens, UniProt Q9UPY5)
- TEST_SUMMARY: Competitive inhibition of [3H]L-glutamate uptake at amino acid transport system xc- in human SNB19 cells by liquid scintillation counting
Measured Ki by item
Unit µM implied. Number only.

These solved cases illustrate the format of a correct answer.
INPUT_SMILES: N[C@@H](Cc1c(C(=O)O)noc1CCc1cccc2ccccc12)C(=O)O
SUBJECT_OF_TEST: Cystine/glutamate transporter (Homo sapiens, UniProt Q9UPY5)
NUMBER: 117
//
INPUT_SMILES: C/C(=N\Nc1ccc([N+](=O)[O-])cc1[N+](=O)[O-])c1c(C(=O)O)noc1CCc1ccc2ccccc2c1
SUBJECT_OF_TEST: Cystine/glutamate transporter (Homo sapiens, UniProt Q9UPY5)
NUMBER: 113
//
INPUT_SMILES: N[C@@H](Cc1c(C(=O)O)noc1CCc1ccc2ccccc2c1)C(=O)O
SUBJECT_OF_TEST: Cystine/glutamate transporter (Homo sapiens, UniProt Q9UPY5)
NUMBER: 52
//
INPUT_SMILES: C/C(=N\Nc1ccc([N+](=O)[O-])cc1)c1c(C(=O)O)noc1C
SUBJECT_OF_TEST: Cystine/glutamate transporter (Homo sapiens, UniProt Q9UPY5)
NUMBER: 60
//
INPUT_SMILES: C/C(=N\Nc1cc(C(F)(F)F)cc(C(F)(F)F)c1)c1c(C(=O)O)noc1C
SUBJECT_OF_TEST: Cystine/glutamate transporter (Homo sapiens, UniProt Q9UPY5)
NUMBER: 64

Prompt line: Please look at this molecule and report its Ki: C/C(=N\Nc1ccc([N+](=O)[O-])cc1[N+](=O)[O-])c1c(C(=O)O)noc1C
Response line: 147

###

- SUBJECT_OF_TEST: Cystine/glutamate transporter (Homo sapiens) (UniProt Q9UPY5)
- TEST_SUMMARY: Inhibition of [3H]L-glutamate uptake at amino acid transport system xc- in human SNB19 cells at 500 uM by liquid scintillation counting
- Assay type: cell-based
- STATED_CONDITIONS: SNB-19
PARAMETER: inhibition
Express your answer as a number followed by its unit.

These solved cases illustrate the format of a correct answer.
INPUT_SMILES: C/C(=N\Nc1cc(C(F)(F)F)cc(C(F)(F)F)c1)c1c(C(=O)O)noc1C
inhibition: 86%

INPUT_SMILES: Cc1nn(-c2ccccc2)c(=O)c2noc(C)c12
inhibition: 26%

INPUT_SMILES: Cc1nn(-c2cc(C(F)(F)F)cc(C(F)(F)F)c2)c(=O)c2noc(C)c12
inhibition: 18%

INPUT_SMILES: C/C(=N\Nc1ccc([N+](=O)[O-])cc1)c1c(C(=O)O)noc1C
inhibition: 78%

INPUT_SMILES: Cc1nn(-c2ccc([N+](=O)[O-])cc2)c(=O)c2noc(C)c12
inhibition: 15%

Next up:
Prompt line: Quote Cystine/glutamate transporter (Homo sapiens) (UniProt Q9UPY5) inhibition for entry C/C(=N\Nc1ccccc1)c1c(C(=O)O)noc1C .
Response line: 44%

###

- SUBJECT_OF_TEST: Cystine/glutamate transporter (Homo sapiens) (UniProt Q9UPY5)
- TEST_SUMMARY: Inhibition of amino acid transport system xc- in human SNB19 cells assessed as [3H]L-glutamate uptake at 500 uM by liquid scintillation counting
- Assay type: cell-based
- Design: scale not given: the % may be the effect or the level left
- STATED_CONDITIONS: SNB-19
Measured Activity by item
Unit % implied. Number only.

INPUT_SMILES: C/C(=N\Nc1cc(C(F)(F)F)cc(C(F)(F)F)c1)c1c(C(=O)O)noc1C
Activity [%]: 14
//
INPUT_SMILES: COc1ccc(-n2nc(C)c3c(C)onc3c2=O)cc1
Activity [%]: 92
//
INPUT_SMILES: C/C(=N\Nc1ccccc1[N+](=O)[O-])c1c(C(=O)O)noc1C
Activity [%]: 97
//
INPUT_SMILES: C/C(=N\Nc1ccc([N+](=O)[O-])cc1[N+](=O)[O-])c1c(C(=O)O)noc1C
Activity [%]: 45
//
INPUT_SMILES: C/C(=N\Nc1ccc([N+](=O)[O-])cc1[N+](=O)[O-])c1c(C(=O)O)noc1COCc1ccc2ccccc2c1
Activity [%]: 95

Prompt line: Quote Cystine/glutamate transporter (Homo sapiens) (UniProt Q9UPY5) Activity for entry Cc1nn(-c2cccc([N+](=O)[O-])c2)c(=O)c2noc(C)c12 .
Response line: 96

Prompt line: Quote Cystine/glutamate transporter (Homo sapiens) (UniProt Q9UPY5) Activity for entry Cc1nn(-c2ccccc2)c(=O)c2noc(C)c12 .
Response line: 74

Prompt line: Quote Cystine/glutamate transporter (Homo sapiens) (UniProt Q9UPY5) Activity for entry Cc1nn(-c2cc(Cl)cc(Cl)c2)c(=O)c2noc(C)c12 .
Response line: 89

Prompt line: Quote Cystine/glutamate transporter (Homo sapiens) (UniProt Q9UPY5) Activity for entry C/C(=N\Nc1ccccc1)c1c(C(=O)O)noc1C .
Response line: 56
